This collection of values is drawn from the supplement of paper PMC8967900.

Form field: selective drug sensitivity score (one value per entry).
# Test system: RCH-ACV
# test details: selective drug sensitivity score (sDSS, relative to normal bone marrow) (sDSS (score)); higher = more potent and effective on the cell line relative to normal bone marrow cells;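 further: ALL cell lines in 384-well plates, five doses spanning 10,000-fold, each plate scaled between vehicle and 100 µmol/L benzalkonium chloride controls, sDSS an adapted area-under-curve metric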
# recorded conditions: 72 h
// keep it numeric: no unit symbol after the value

Solved entries:
[
  {
    "compound": "CCOc1ccn(-c2ccc(F)cc2)c(=O)c1C(=O)Nc1ccc(Oc2ccnc(N)c2Cl)c(F)c1 (top concentration 2500 nM)",
    "selective drug sensitivity score": 1
  },
  {
    "compound": "CO[C@H]1C[C@@H]2CC[C@@H](C)[C@@](O)(O2)C(=O)C(=O)N2CCCC[C@H]2C(=O)O[C@H]([C@H](C)C[C@@H]2CC[C@@H](OCCO)[C@H](OC)C2)CC(=O)[C@H](C)/C=C(\\C)[C@@H](O)[C@@H](OC)C(=O)[C@H](C)C[C@H](C)/C=C/C=C/C=C/1C [Everolimus] (top concentration 100 nM)",
    "selective drug sensitivity score": 16
  },
  {
    "compound": "C[C@@]1(C(=O)Nc2ccc(F)nc2)CCCN1c1nc(Nc2cc(C3CC3)n[nH]2)c2cccn2n1 (top concentration 10000 nM)",
    "selective drug sensitivity score": 6.08
  }
]

Alright, here's another compound for you.
Qu. Name the recorded selective drug sensitivity score of the item Cc1nc(NC(=O)N2CCC[C@H]2C(N)=O)sc1-c1ccnc(C(C)(C)C(F)(F)F)c1 [Alpelisib] (top concentration 2500 nM) in your answer.
Ans. 8.98

---

# Test system: P12-ICHIKAWA
# test details: selective drug sensitivity score (sDSS, relative to normal bone marrow) (sDSS (score)); higher = more potent and effective on the cell line relative to normal bone marrow cells
# recorded conditions: 72 h
Entries and their selective drug sensitivity score
# respond with the number and nothing more

[
  {
    "compound": "CCc1c(C(=O)C(N)=O)c2c(OCC(=O)O)cccc2n1Cc1ccccc1 [Varespladib] (top concentration 10000 nM)",
    "target of assay": "P12-ICHIKAWA",
    "measurement name": "selective drug sensitivity score",
    "value observed": -0.84
  },
  {
    "compound": "CN[C@@H](C)C(=O)N[C@H](C(=O)N1CCC[C@H]1c1nc(C(=O)c2ccc(F)cc2)cs1)C1CCCCC1 [NVP-LCL161] (top concentration 25000 nM)",
    "target of assay": "P12-ICHIKAWA",
    "measurement name": "selective drug sensitivity score",
    "value observed": -4.32
  },
  {
    "compound": "CNc1ncc2cc(-c3cc(NC(=O)NCCC(C)(C)C)c(F)cc3C)c(C)nc2n1 (top concentration 10000 nM)",
    "target of assay": "P12-ICHIKAWA",
    "measurement name": "selective drug sensitivity score",
    "value observed": 11
  },
  {
    "compound": "CC(C)[C@@H](CS(=O)(=O)C(C)C)N1C(=O)[C@@](C)(CC(=O)O)C[C@H](c2cccc(Cl)c2)[C@H]1c1ccc(Cl)cc1 [AMG-232] (top concentration 10000 nM)",
    "target of assay": "P12-ICHIKAWA",
    "measurement name": "selective drug sensitivity score",
    "value observed": -8.24
  },
  {
    "compound": "CCN1CCN(c2ccc(Nc3cc(N(C)C(=O)Nc4c(Cl)c(OC)cc(OC)c4Cl)ncn3)cc2)CC1 [Infigratinib] (top concentration 1000 nM)",
    "target of assay": "P12-ICHIKAWA",
    "measurement name": "selective drug sensitivity score",
    "value observed": 0
  }
]

Qu. Query selective drug sensitivity score for N#CC1(c2ccc(NC(=O)c3cccnc3NCc3ccncc3)cc2)CCCC1 [Apatinib] (top concentration 10000 nM)
Ans. 0

Qu. Quote selective drug sensitivity score reported for FC(F)(F)c1ccc(CNc2ccc(Cc3c[nH]c4ncc(Cl)cc34)cn2)cn1 [Pexidartinib] (top concentration 10000 nM) please.
Ans. 0.18

---

# System: SEM cells
# test details: selective drug sensitivity score (sDSS, relative to normal bone marrow) (sDSS (score)); higher = more potent and effective on the cell line relative to normal bone marrow cells
# recorded conditions: 72 h
measurement name: selective drug sensitivity score
Keep the answer to the number alone.

Known selective drug sensitivity score results, listed for orientation:
[
  {
    "molecule": "CCS(=O)(=O)Nc1ccc(Oc2ccc(F)cc2F)c(-c2cn(C)c(=O)c3[nH]ccc23)c1 [Mivebresib] (top concentration 10000 nM)",
    "value observed": 16
  },
  {
    "molecule": "O=C1CCC(N2C(=O)c3ccccc3C2=O)C(=O)N1 (centres undefined) [Thalidomide] (top concentration 10000 nM)",
    "value observed": -0.14
  },
  {
    "molecule": "CC(O)(CS(=O)(=O)c1ccc(F)cc1)C(=O)Nc1ccc(C#N)c(C(F)(F)F)c1 (centres undefined) [Bicalutamide] (top concentration 10000 nM)",
    "value observed": -1.68
  }
]

Turning now to a further record.
Qu. Specify measured selective drug sensitivity score for CC(=O)O[C@@]12CO[C@@H]1C[C@H](O)[C@@]1(C)C(=O)[C@H](O)C3=C(C)[C@@H](OC(=O)[C@H](O)[C@@H](NC(=O)OC(C)(C)C)c4ccccc4)C[C@@](O)([C@@H](OC(=O)c4ccccc4)[C@H]21)C3(C)C [Docetaxel] (top concentration 1000 nM) .
Ans. 19.5

---

# Tested on: 380
# test details: selective drug sensitivity score (sDSS, relative to normal bone marrow) (sDSS (score)); higher = more potent and effective on the cell line relative to normal bone marrow cells
# recorded conditions: 72 h
Would you mind labelling by selective drug sensitivity score? At or over -0.2 is 1.0, under is 0.0.

Previously resolved entries follow.
[
  {
    "compound": "COc1cc(N2CCN(C)CC2)ccc1Nc1nccc(-c2cn(C)c3cnccc23)n1 [AZ191] (top concentration 10000 nM)",
    "qualitative label": 0.0
  },
  {
    "compound": "O=C1CCc2c(Oc3ccc4c(c3)[C@@H]3[C@H](O4)[C@H]3c3nc4cc(C(F)(F)F)ccc4[nH]3)ccnc2N1 [Lifirafenib (BGB-283)] (top concentration 10000 nM)",
    "qualitative label": 1.0
  },
  {
    "compound": "CNC(=O)c1ccc(N2C(=S)N(c3cnc(C#N)c(C(F)(F)F)c3)C(=O)C23CCC3)cc1F [Apalutamide] (top concentration 10000 nM)",
    "qualitative label": 1.0
  },
  {
    "compound": "COc1c(C)cnc(Cn2cnc3c(Cl)nc(N)nc32)c1C [BIIB021] (top concentration 10000 nM)",
    "qualitative label": 1.0
  },
  {
    "compound": "CCCCCCCCc1ccc(CCC(N)(CO)CO)cc1 [Fingolimod] (top concentration 10000 nM)",
    "qualitative label": 0.0
  },
  {
    "compound": "CN1CC[C@@H](NC(=O)Nc2ccc(C#N)cc2)C[C@@H]1c1nc2ccccc2[nH]1 [Glasdegib] (top concentration 1000 nM)",
    "qualitative label": 1.0
  }
]

Qu. Does the compound CC1(C)CCC(CN2CCN(c3ccc(C(=O)NS(=O)(=O)c4ccc(NCC5CCOCC5)c([N+](=O)[O-])c4)c(Oc4cnc5[nH]ccc5c4)c3)CC2)=C(c2ccc(Cl)cc2)C1 [Venetoclax] (top concentration 1000 nM) have recorded selective drug sensitivity score that is -0.2 or more?
Ans. 1.0

Qu. Is reported selective drug sensitivity score greater than or equal to -0.2 here: COc1cc2c(Nc3ccc(Cl)c(Cl)c3F)ncnc2cc1OC[C@@H]1C[C@@H]2CN(C)C[C@@H]2C1 [Tesevatinib] (top concentration 1000 nM)
Ans. 0.0

Qu. Could you please find out whether CC[C@H](CO)Nc1nc(NCc2ccccc2)c2ncn(C(C)C)c2n1 [Seliciclib] (top concentration 10000 nM) has selective drug sensitivity score that meets -0.2 or exceeds it?
Ans. 0.0

Qu. Dear colleague, could you confirm whether CC(C)(C)c1cc(NC(=O)Nc2ccc(Oc3ccnc4[nH]c(=O)cnc34)cc2F)n(-c2ccccc2)n1 (top concentration 25000 nM) has selective drug sensitivity score at or above -0.2?
Ans. 0.0

Qu. selective drug sensitivity score >= -0.2 for Cc1c2oc3c(C)ccc(C(=O)N[C@@H]4C(=O)N[C@H](C(C)C)C(=O)N5CCC[C@H]5C(=O)N(C)CC(=O)N(C)[C@@H](C(C)C)C(=O)O[C@@H]4C)c3nc-2c(C(=O)N[C@@H]2C(=O)N[C@H](C(C)C)C(=O)N3CCC[C@H]3C(=O)N(C)CC(=O)N(C)[C@@H](C(C)C)C(=O)O[C@@H]2C)c(N)c1=O [Dactinomycin] (top concentration 1000 nM) ?
Ans. 1.0

---

Each record here notes measured selective drug sensitivity score.
# Test system: COG-LL-355h
# test details: selective drug sensitivity score (sDSS, relative to normal bone marrow) (sDSS (score)); higher = more potent and effective on the cell line relative to normal bone marrow cells
# recorded conditions: 72 h
I'd appreciate a reply containing only the number, no unit.

Solved cases (2 shown):
[
  {
    "compound": "CN1CCN(C2CCN(C(=O)Nc3cc(Oc4ccc(NC(=O)C5(C(=O)Nc6ccc(F)cc6)CC5)c(F)c4)ccn3)CC2)CC1 [Golvatinib] (top concentration 2500 nM)",
    "value observed": -0.14
  },
  {
    "compound": "Clc1ccc(C(c2ccccc2Cl)C(Cl)Cl)cc1 (stereo not drawn) [Mitotane] (top concentration 10000 nM)",
    "value observed": 0.02
  }
]

Qu. Tell me its selective drug sensitivity score given O=C(/C=C/c1cccc(S(=O)(=O)Nc2ccccc2)c1)NO [Belinostat] (top concentration 10000 nM) as the entry.
Ans. 10.2
